Reference source for all entries: patent US8906848B2

Test system: C. albicans
Assay: MIC, broth dilution CLSI M38-A2 with YPD medium (Table 2)
Format: cell-based
Starred links: 1 amine or outer side, 2 acyl side, 3 side chain; linkers in the order of their positions; H or OH if unused. Non-standard residues stand in square brackets, D forms with d. Residues, ends and D or L forms follow the SMILES beside them. NMePhe(3-(3-pyridyl)) = CN[C@@H](Cc1cccc(-c2cccnc2)c1)C(=O)O; NMePhe(3-Ph) = CN[C@@H](Cc1cccc(-c2ccccc2)c1)C(=O)O; X2 = CN([C@@H](Cc1cccc(B(O)O)c1)C(=O)[*:2])[*:1]; NMePhe(3-Br) = CN[C@@H](Cc1cccc(Br)c1)C(=O)O; Phe(3-Br) = N[C@@H](Cc1cccc(Br)c1)C(=O)O; X1 = CC[C@@H](C)[C@@H](O[*:1])C(=O)[*:2]; NMeVal(β-OH) = CN[C@H](C(=O)O)C(C)(C)O; aIle = CC[C@@H](C)[C@H](N)C(=O)O; NMeV = CN[C@H](C(=O)O)C(C)C
metric: MIC for C. albicans

# molecule, metric, result
measured = [
    ("CC[C@@H](C)[C@@H]1NC(=O)[C@@H]2CCCN2C(=O)[C@H](Cc2cccc(-c3ccccc3)c2)N(C)C(=O)[C@H](Cc2ccccc2)NC(=O)[C@H](C(C)C)N(C)C(=O)[C@@H]([C@H](C)CC)OC(=O)[C@H](C(C)(C)O)N(C)C(=O)[C@H](CC(C)C)NC(=O)[C@H](C(C)C)N(C)C1=O [Phenyl-mPhe^4-AbA] (cyclo([X1][NMeV]F[NMePhe(3-Ph)]P[aIle][NMeV]L[NMeVal(β-OH)]))", "MIC for C. albicans", "<0.05 µg/mL"),
    ("CC[C@@H](C)[C@@H]1NC(=O)[C@@H]2CCCN2C(=O)[C@H](Cc2cccc(-c3cccnc3)c2)N(C)C(=O)[C@H](Cc2ccccc2)NC(=O)[C@H](C(C)C)N(C)C(=O)[C@@H]([C@H](C)CC)OC(=O)[C@H](C(C)(C)O)N(C)C(=O)[C@H](CC(C)C)NC(=O)[C@H](C(C)C)N(C)C1=O [3-pyridyl-mPhe^4-AbA] (cyclo([X1][NMeV]F[NMePhe(3-(3-pyridyl))]P[aIle][NMeV]L[NMeVal(β-OH)]))", "MIC for C. albicans", "<0.05 µg/mL"),
    ("CC[C@@H](C)[C@@H]1NC(=O)[C@@H]2CCCN2C(=O)[C@H](Cc2cccc(Br)c2)N(C)C(=O)[C@H](Cc2cccc(Br)c2)NC(=O)[C@H](C(C)C)N(C)C(=O)[C@@H]([C@H](C)CC)OC(=O)[C@H](C(C)(C)O)N(C)C(=O)[C@H](CC(C)C)NC(=O)[C@H](C(C)C)N(C)C1=O [Br-Phe^3-Br-mPhe^4-AbA] (cyclo([X1][NMeV][Phe(3-Br)][NMePhe(3-Br)]P[aIle][NMeV]L[NMeVal(β-OH)]))", "MIC for C. albicans", "5 µg/mL"),
]

[ask] I have this molecule here, CC[C@@H](C)[C@@H]1NC(=O)[C@@H]2CCCN2C(=O)[C@H](Cc2cccc(B(O)O)c2)N(C)C(=O)[C@H](Cc2ccccc2)NC(=O)[C@H](C(C)C)N(C)C(=O)[C@@H]([C@H](C)CC)OC(=O)[C@H](C(C)(C)O)N(C)C(=O)[C@H](CC(C)C)NC(=O)[C@H](C(C)C)N(C)C1=O [B(OH)2-mPhe^4-AbA] (cyclo([X1][NMeV]F[X2]P[aIle][NMeV]L[NMeVal(β-OH)])) , and I need its recorded MIC for C. albicans.
[reply] <0.05 µg/mL
